MEASURED_TARGET: HLA-C*05:01
ASSAY_OVERVIEW: IEDB peptide-MHC binding, purified MHC/direct/fluorescence; filed as Kd, often an IC50 or EC50 that approximates it; bounds were set here for any values at or beyond the usual limits of such assays
MEASUREMENT_CONTEXT: source organism: Listeria monocytogenes serotype 4b str. H7858
METRIC: Kd (µM)

>>> test_value("FLMYPNNIF")
0.266

----------
MEASURED_TARGET: HLA-B*40:01
ASSAY_OVERVIEW: IEDB peptide-MHC binding, purified MHC/competitive/radioactivity; filed as Kd, often an IC50 or EC50 that approximates it; bounds were set here for any values at or beyond the usual limits of such assays
MEASUREMENT_CONTEXT: source organism: SARS coronavirus Tor2
# maps each entry to its Kd
METRIC: Kd (nM)

>>> test_value("SDEVARDLSL")
353
>>> test_value("RELNGGAVT")
212
>>> test_value("EEVVLKNGEL")
6.33
>>> test_value("MEAQFLYLY")
1850
>>> test_value("CEEMLDNRAT")
18300
>>> test_value("REGVFVFNG")
1550
>>> test_value("GESVKTQFNY")
11600
>>> test_value("QELLIQQWI")
186
>>> test_value("EEAIRHVRA")
5590
>>> test_value("AEWVLAYMLF")
152
>>> test_value("FEVLAVEDT")
10900
>>> test_value("WEILKFLITG")
19000
>>> test_value("METDFLELAM")
15.6
